Here, each record is paired with measured EC50 data.
measurement target: Cationic amino acid transporter 3 (Homo sapiens)
assay protocol: SLC7A3 cationic amino acid substrate potency, dose response, HEK293 JumpIn overexpressing cells, membrane potential dye (AID 1745863)
condition notes: HEK293 JumpIn SLC7A3 OE, membrane potential dye FLIPR

query: Quick one: EC50 for NC(N)=NCCC[C@H](N)C(=O)O ?
result: 283 µM

query: Given NCCC[C@H](N)C(=O)O , state its recorded EC50.
result: 237 µM

Pending molecule:
query: Give its EC50 value. Item: NCCCC[C@H](N)C(=O)O
result: 158 µM
